assayed_target: PDZRN4_1, Q6ZMN7
Sequence (Q6ZMN7 213-318): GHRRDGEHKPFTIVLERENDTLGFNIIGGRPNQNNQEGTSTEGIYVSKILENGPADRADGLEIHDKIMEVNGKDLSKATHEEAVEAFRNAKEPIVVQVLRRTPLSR
assay_overview: holdup assay
Design: key: below the threshold = too weak to quantify, mostly under pKd 3.1 to 4
condition_description: plain residues with an end cap or a label only (N-terminal biotin on a linker: ado-ado)
attribute_measured: pKd
One number for each entry.

Known pKd results, listed for orientation:
[
  {
    "binder": "EIPAQSPTCV [FZD10, Q9ULW2]",
    "pKd": 3.63
  },
  {
    "binder": "GIKKITSTAL [RPS6KA3, P51812]",
    "pKd": 4.6
  },
  {
    "binder": "TGLWKHETTV [ADGRA3, Q8IWK6]",
    "pKd": 4.56
  }
]

Now, please, on to the next binder.
[Q] Give its pKd value. Item: NTLNRKTTPV [CACNG8, Q8WXS5]
[A] 3.63
